# Tested on: TDF;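 further: TDF is a line of transformed human dermal fibroblasts of mesenchymal origin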
# Experiment summary: H1.0 immunofluorescence intensity relative to DMSO (% of DMSO); higher = stronger H1.0 induction, active = 120 or more
# Test conditions: concentration: 10 µM; 24 h
Labels: True (active), False (inactive)

Compound	Assay target	Group label
Cl.OCc1cnc[nH]1 [4-Imidazolemethanol hydrochloride]	TDF	False
CCCCCC(C=CC=CCC=CCC=CCCCC(=O)O)OO (stereo not given)	TDF	False
COc1ccc(Cc2nccc3cc(OC)c(OC)cc23)cc1OC.Cl [Papaverine hydrochloride]	TDF	False
CN1C2CCC1CC(OC(=O)C(CO)c1ccccc1)C2 (stereo not given) [Atropine]	TDF	False
CC(C)c1cccc(C(C)C)c1O	TDF	False
CC(C)N(CCC(C(N)=O)(c1ccccc1)c1ccccn1)C(C)C.O=P(O)(O)O (stereo not given) [Disopyramide phosphate]	TDF	False
CC12Cc3cn[nH]c3CC1CCC1C2CCC2(C)C1CCC2(C)O (stereo not given)	TDF	False
CN1CC(C(=O)NC2(C)OC3(O)C4CCCN4C(=O)C(Cc4ccccc4)N3C2=O)CC2c3cccc4[nH]cc(c34)CC21.CS(=O)(=O)O (stereo not given) [Dihydroergotamine methanesulfonate]	TDF	False
CCCCCC=CCC=CCC=CCC=CCCCC(=O)NCCO [Anandamide (20:4, n-6)]	TDF	False
Cl.c1ccc2c(c1)OCC(C1=NCCN1)O2 (stereo not given) [Idazoxan hydrochloride]	TDF	False
C[N+](C)(C)CCOC(=O)CBr.[Br-] [Bromoacetylcholine bromide]	TDF	False
CC(C)(OO)c1ccccc1 [Cumene hydroperoxide]	TDF	False
CCCCC(C#N)(Cn1cncn1)c1ccc(Cl)cc1 (stereo not given)	TDF	False
CC1Cc2c(Cl)cc(C(=O)NC(Cc3ccccc3)C(=O)O)c(O)c2C(=O)O1 (stereo not given)	TDF	False
Br.CCCN(CCC)C1CCc2cccc(O)c2C1 (stereo not drawn) [R-(+)-8-Hydroxy-DPAT hydrobromide]	TDF	False
COc1ccc(CC2NCCc3cc(OC)c(OC)cc32)cc1OC.Cl (stereo not given)	TDF	False
CCCCCC=CCC=CCC=CCC=CCCCC(=O)NCC(=O)O [N-Arachidonylglycine]	TDF	False
Cl.Cl.c1ccc(CCCN2CCN(CCOC(c3ccccc3)c3ccccc3)CC2)cc1	TDF	False
CCCCCC(C=CC=CCCCCCCCCCC(=O)O)OO (stereo not given)	TDF	False
CCN(C)C(=O)Oc1cccc(C(C)N(C)C)c1 (stereo not given)	TDF	False
CNc1ccc2oc(CC3OC4(CCC3C)OC(C(C)C(=O)c3ccc[nH]3)C(C)CC4C)nc2c1C(=O)O (stereo not given)	TDF	True
COC1=CC(=O)OC(C=Cc2ccccc2)C1 (racemic)	TDF	False
NCCCP(=O)(O)O	TDF	False
CC1C2Cc3ccc(O)cc3C1(C)CCN2CC1CC1 (single isomer, unassigned; (+)) [(+)-Cyclazocine]	TDF	False
O=[N+]([O-])c1cc(O)c(O)c([N+](=O)[O-])c1	TDF	False
CN(C)CCc1ccc(O)cc1.CN(C)CCc1ccc(O)cc1.O=S(=O)(O)O [Hordenine sulfate]	TDF	False
Cl.NN=C(N)N [Aminoguanidine hydrochloride]	TDF	False
CCCCCCC1C(=O)OC(C)C(NC(=O)c2cccc(NC=O)c2O)C(=O)OC(C)C1OC(=O)CC(C)C (stereo not given) [Antimycin A1]	TDF	False
CC1C(=O)OC2CCN3CC=C(COC(=O)C(C)(O)C1(C)O)C23 (stereo not given)	TDF	False
CCN(CC)C(=O)NC1C=C2c3cccc4[nH]cc(c34)CC2N(C)C1.O=C(O)C=CC(=O)O (stereo not drawn) [R(+)-Lisuride hydrogen maleate]	TDF	False
NC(=O)CI [Iodoacetamide]	TDF	True
CNCCc1c[nH]c2ccc(O)cc12.O=C(O)C(=O)O [N-omega-Methyl-5-hydroxytryptamine oxalate salt]	TDF	False
Fc1cc(F)c2c(c1)C1C=CCC1C(c1cccnc1)N2 (stereo not given)	TDF	True
COC1=C(OC)C(=O)C(=C2C(C)=C(C(=O)O)NC(c3ccc4c(n3)C(=O)C(N)=C(OC)C4=O)=C2N)C=C1	TDF	True
CN1C2CCC1CC(OC(c1ccccc1)c1ccccc1N)C2 (stereo not given)	TDF	False
